# studySystem: Muscarinic acetylcholine receptor M4 (Homo sapiens) (UniProt P08173)
# Sequence (P08173 whole entry, looked up): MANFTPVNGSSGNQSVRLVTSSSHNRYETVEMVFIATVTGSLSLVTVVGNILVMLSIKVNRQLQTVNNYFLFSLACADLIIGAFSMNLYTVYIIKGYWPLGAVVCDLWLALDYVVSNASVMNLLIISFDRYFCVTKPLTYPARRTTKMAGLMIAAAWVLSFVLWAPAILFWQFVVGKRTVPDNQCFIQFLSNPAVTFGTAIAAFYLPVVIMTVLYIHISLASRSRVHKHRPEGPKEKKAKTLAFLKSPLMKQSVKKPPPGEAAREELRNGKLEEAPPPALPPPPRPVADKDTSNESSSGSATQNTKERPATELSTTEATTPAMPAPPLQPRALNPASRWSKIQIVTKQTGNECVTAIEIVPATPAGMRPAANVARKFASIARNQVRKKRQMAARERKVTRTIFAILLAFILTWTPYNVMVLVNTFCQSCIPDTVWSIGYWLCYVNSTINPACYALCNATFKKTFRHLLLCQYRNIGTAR
# experimentalProtocol: compounds altering M4/GIRK thallium flux, either direction, primary screen, M4 allosteric agonist project, cell-based, HEK293 M4/GIRK, BTC-AM (AID 625);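 note: thallium influx through GIRK channels coupled to M4 in HEK293 cells with BTC-AM dye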
# assaySetup: at 10 µM, actives lie on both sides
property: fluorescence slope
A bare number is all that is needed in reply.

If you can, please state the reported fluorescence slope value of CC1(C)NC(=O)N(CC(O)COc2cc3ccccc3cc2C(=O)N2CCCCC2)C1=O (stereo unspecified) .
0.00552

If you can, please state the reported fluorescence slope value of "CNc1oc(-c2cccs2)nc1C#N" .
0.00668

If you can, please state the reported fluorescence slope value of "CCOc1ccc(NC(=O)c2nn(C)cc2Br)cc1" .
0.00579

If you can, please state the reported fluorescence slope value of "COCCCn1c(C)nc2c(c1=O)c1nc3ccccc3nc1n2CCc1ccccc1" .
0.00467

If you can, please state the reported fluorescence slope value of "C=CCn1c(=O)c(C(=O)NCCN(CC)CC)c(O)c2ccccc21" .
0.00442

If you can, please state the reported fluorescence slope value of "CC(C)CCNc1nc2c(cc1C#N)COC(C)(C)C2" .
0.00455

If you can, please state the reported fluorescence slope value of "C=CCOn1c(=O)c(-c2ccc(OC)cc2)[n+]([O-])c2ccccc21" .
0.00502

If you can, please state the reported fluorescence slope value of "Nc1ccc2oc(-c3ccccc3Cl)nc2c1" .
0.00466

If you can, please state the reported fluorescence slope value of "N#Cc1c(N2CCOCC2)nc(-c2ccco2)c2c1CCCC2" .
0.00398

If you can, please state the reported fluorescence slope value of "CN1CCN(Cc2c(O)c(Cl)cc3c(-c4ccccc4)cc(=O)oc23)CC1" .
0.00592

If you can, please state the reported fluorescence slope value of "COn1c(SC2CCCCC2)nc2ccccc2c1=O" .
0.00976

If you can, please state the reported fluorescence slope value of "CCCCOC(=O)c1[nH]c(C)c(C(=O)OC)c1C" .
0.00588

If you can, please state the reported fluorescence slope value of "COc1ccc(Nc2cc(C)nc(-n3nc(C)cc3C)n2)cc1" .
0.00507

If you can, please state the reported fluorescence slope value of "COC(=O)CSc1nc(C)c(Oc2ccccc2)c(=O)[nH]1" .
0.00506

If you can, please state the reported fluorescence slope value of CCN(CC)CCN1C(=O)C(=O)/C(=C(/O)c2c(C)[nH]c(C(=O)OC)c2C)C1c1ccccc1 (stereo unspecified) .
0.0049

If you can, please state the reported fluorescence slope value of "COC(=O)c1cc(Br)c(=O)n(-c2cc(C)on2)c1" .
0.00456

If you can, please state the reported fluorescence slope value of "O=C(Cc1ccc(Cl)cc1)Nc1cccc(-c2nnc(-c3ccco3)o2)c1" .
0.006

If you can, please state the reported fluorescence slope value of "NC(=O)C1CCN(CCC(=O)Nc2ccc(Br)cc2)CC1" .
0.00492

If you can, please state the reported fluorescence slope value of "CCCC(=O)N1CCc2[nH]c3ccccc3c2C1" .
0.0054

If you can, please state the reported fluorescence slope value of Nc1nc2n(n1)C(c1cccs1)CC(c1ccc(Br)cc1)N2 (stereo unspecified) .
0.0057

If you can, please state the reported fluorescence slope value of "c1ccc2c(c1)CCN(c1ncnc3c1[nH]c1ccccc13)C2" .
0.00488

If you can, please state the reported fluorescence slope value of CCOC(=O)/C(C#N)=C1/SC(CCO)C(=O)N1c1ccccc1 (stereo unspecified) .
0.00516

If you can, please state the reported fluorescence slope value of "Cn1c(Cn2cnc3ccccc32)nc2ccccc21" .
0.00479

If you can, please state the reported fluorescence slope value of "CCOC(=O)c1c(C)n(C)c2ccc(OC)c(NC(=O)CN3CCC4(CC3)OCCO4)c12" .
0.00438

If you can, please state the reported fluorescence slope value of Cn1ccnc1C(O)c1ccc(OCc2ccccc2)cc1 (stereo unspecified) .
0.00541

If you can, please state the reported fluorescence slope value of Cc1cc2c(c(=O)n1Cc1ccccn1)C(c1ccc3c(c1)OCO3)C(C#N)=C(N)O2 (stereo unspecified) .
0.00525

If you can, please state the reported fluorescence slope value of "CCc1c(C)c2cc(Cl)c(O)c(CN3CCCCC3)c2oc1=O" .
0.00604

If you can, please state the reported fluorescence slope value of "COc1ccc(C(=O)c2oc3nc(C)cc(C)c3c2N)cc1" .
0.00438

If you can, please state the reported fluorescence slope value of COC(=O)c1[nH]c(C)c(/C(O)=C2\C(=O)C(=O)N(CCN3CCOCC3)C2c2ccccc2OC)c1C (stereo unspecified) .
0.00635

If you can, please state the reported fluorescence slope value of "CCCCc1cc(=O)oc2c(CN3CCCC3)c(O)ccc12" .
0.00474

If you can, please state the reported fluorescence slope value of "CCCn1c(SCC(N)=O)nc2c(c1=O)C1(CCCC1)Cc1ccccc1-2" .
0.00485

If you can, please state the reported fluorescence slope value of "O=S(=O)(N[C@@H]1C[C@H]2CC[C@@H]1C2)c1cccs1" .
0.00569

If you can, please state the reported fluorescence slope value of COc1ccc(OC)c(C2/C(=C(/O)c3ccccc3)C(=O)C(=O)N2Cc2ccco2)c1 (stereo unspecified) .
0.00485

If you can, please state the reported fluorescence slope value of "CC(C)(C)C1=Nn2c(nnc2C2CCCCC2)SC1" .
0.00451

If you can, please state the reported fluorescence slope value of "CC(=O)Oc1ccc2c(C)cc(=O)[nH]c2c1" .
0.00681

If you can, please state the reported fluorescence slope value of "c1ccc2c(c1)[nH]c1c(N3CCSCC3)ncnc12" .
0.00494

If you can, please state the reported fluorescence slope value of "COC(=O)CSCC(=O)Nc1cc2c(cc1C(C)=O)OCO2" .
0.00475

If you can, please state the reported fluorescence slope value of COc1cccc(NC(=O)C2CC(=O)n3cnnc3S2)c1 (stereo unspecified) .
0.00822

If you can, please state the reported fluorescence slope value of CCC(=O)NC1(C(F)(F)F)C(=O)Nc2c1c(=O)[nH]c(=O)n2Cc1ccco1 (stereo unspecified) .
0.00505

If you can, please state the reported fluorescence slope value of COc1ccc(C2/C(=C(\O)c3ccc4c(c3)OCCO4)C(=O)C(=O)N2CCCN(C)C)cc1 (stereo unspecified) .
0.00537

If you can, please state the reported fluorescence slope value of "COc1cc(=O)[nH]c(=O)n1CC(=O)c1ccccc1" .
0.00585

If you can, please state the reported fluorescence slope value of "Oc1oc(-c2ccco2)nc1C=Nc1cccc(Cl)c1" .
0.00392

If you can, please state the reported fluorescence slope value of C=CCOc1ccc(C2/C(=C(\O)c3ccc(F)cc3)C(=O)C(=O)N2CCCN(C)C)cc1 (stereo unspecified) .
0.00492

If you can, please state the reported fluorescence slope value of "Cn1ncc(N=Cc2ccccc2O)c1C(=O)N1CCOCC1" .
0.00481

If you can, please state the reported fluorescence slope value of "CC1(C)Cc2c(C#N)c(N3CCOCC3)nc(Cc3ccccc3)c2CO1" .
0.00448

If you can, please state the reported fluorescence slope value of O=C1C(=O)N(Cc2cccnc2)C(c2ccccn2)/C1=C(/O)c1ccc(Br)cc1 (stereo unspecified) .
0.00516
